Origin of values: patent US20210032312A1

target: T1, human CD8 alpha (CD8A) on primary human CD8+ T cells (human, UniProt P01732 22-235); assay: flow cytometry, human CD8+ T cells, 0.2 uM FN3
T1 construct: whole, on cells; also called hCD8A
T1 sequence (P01732 22-235): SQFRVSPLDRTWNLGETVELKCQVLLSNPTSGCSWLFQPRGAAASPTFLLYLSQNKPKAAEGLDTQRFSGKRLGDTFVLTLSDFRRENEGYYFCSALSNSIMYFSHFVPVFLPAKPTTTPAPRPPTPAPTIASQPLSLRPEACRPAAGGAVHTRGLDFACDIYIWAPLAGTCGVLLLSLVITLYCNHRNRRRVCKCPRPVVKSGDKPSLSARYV
parameter: Human T-cell Binding 0.2 uM (MFI)

a: P282FR9P1361_A5 (designed binder, FN3 domain) LPAPKNLVVSRVTEDSARLSWTAPDAAFDSFGILYYEPVDSGEAITLPVPGSERSYDLTGLKPGTEYWVVITGVKGGAPSTPLGAIFTT
b: P283AR9P1362_D3 (designed binder, FN3 domain) LPAPKNLVVSRVTEDSARLSWPVESNAFDSFLIQYQESEKVGEAIVLTVPGSERSYDLTGLKPGTEYTVSIYGVDVEYDQHGRPRWSNPLSAIFTT
Kindly compare a with b and tell me which has the lower Human T-cell Binding 0.2 uM (MFI) figure. // caller expects the label of the chosen entry
b
(b: 3480 MFI, a: 5210 MFI)

I: P282BR9P1357_C4 (designed binder, FN3 domain) LPAPNNLVVSRVTEDSARLSWPFVSQNKPHFDSFLIQYQESEKVGEAIVLTVPGSERSYDLTGLKPGTEYTVSIYGVDVKWEGNRPVASNPLSAIFTT
II: P283BR9P1363_E4 (designed binder, FN3 domain) LPAPKNLVVSRVTEDSARLSWIKSETSQPAFDSFLIQYQESEKVGEAIVLTVPGSERSYDLTGLKPGTEYTVSIYGVDVKWEGNRPVASNPLSAIFTT
III: P282DR9P1359_G7 (designed binder, FN3 domain) LPAPKNLVVSRVTEDSARLSWTAPDAAFDSFAITYIEKEHIEDGEAIVLTVPGSERSYDLTGLKPGTEYWVPIWGVKGGANSWPLSAIFTT
IV: P282FR9P1361_D3 (designed binder, FN3 domain) LPAPKNLVVSRVTEDSARLSWTAPDAAFDSFDIWYAEYGYPGEAIVLTVPGSERSYDLTGLNPGTEYDVAISGVKGGPRSYPLSAIFTT
Please rank these binders by Human T-cell Binding 0.2 uM (MFI) in descending order. Hello, could you send the labels back in the order asked? Thank you.
III, I, II, IV

I: P283BR9P1363_B6 (designed binder, FN3 domain) LPAPKNLVVSRVTEDSARLSWQRHSDAHPLFDSFLIQYQESEKVGEAIVLTVPGSERSYDLTGLKPGTEYTVSIYGVDVKWEGNRPVASNPLSAIFTT
II: P282DR9P1359_A8 (designed binder, FN3 domain) LPAPKNLVVSRVTEDSARLSWTAPDAAFDSFRIAYPEWPVQGEAIVLTVPGSERSYDLTGLKPGTEYFVIIYGVKGGELSPPLSAIFTT
Between the two listed entries I and II , which has its Human T-cell Binding 0.2 uM (MFI) at the higher number? // caller expects the label of the chosen entry
I
(I: 3450 MFI, II: 2110 MFI)

1: P282ER9P1360_C4 (designed binder, FN3 domain) LPAPKNLVVSRVTEDSARLSWTAPDAAFDSFGITYYEPNHGGEAISLSVPGSERSYDPTGLKPGTEYWVVITGVKGGAPSTPLGAIFTT
2: P282ER9P1360_G7 (designed binder, FN3 domain) LPAPKNLVVSRVTEDSARLSWTAPDAAFDSFGILYYEPVDSGEAITLPVPGSERSYDLTGLKPGTEYWVVITGVKGGAPSTPLGAILTT
Between the two listed entries 1 and 2 , which has its Human T-cell Binding 0.2 uM (MFI) at the higher number? // caller expects the label of the chosen entry
2
(2: 5870 MFI, 1: 3460 MFI)

I: P282DR9P1359_F5 (designed binder, FN3 domain) LPAPKNLVVSRVTEDSARLSWTAPDAAFDSFQIAYPEWPPPGEAIVLTVPGSERSYDLTGLKPGTEYFVIIQGVKGGVESWPLSAIFTT
II: P282BR9P1357_B2 (designed binder, FN3 domain) LPAPKNLVVSRVTEDSARLSWNPSEDPQRFDSFLIQYQESEKVGEAIVLTVPGSERSYDLTGLKPGTEYTVSIYGVDVKWEGNRPVASNPLSAIFTT
Kindly compare I with II and tell me which has the lower Human T-cell Binding 0.2 uM (MFI) figure. // caller expects the label of the chosen entry
II

a: P283AR9P1362_C7 (designed binder, FN3 domain) LPAPKNLVVSRVTEDSARLSWVKRATSFDSFLIQYQESEKVGEAIVLTVPGSERSYDLTGLKPGTEYTVSIYGVDVRYNEGQPIWSNPLSAIFTT
b: P282AR9P1356_A4 (designed binder, FN3 domain) LPAPKNLVVSRVTEDSARLSWVKRPNSFDSFLIQYQESEKVGEAIVLTVPGSERSYDLTGLKPGTEYTVSIYGVDVVDYEGRPRWSNPLSAIFTT
Kindly compare a with b and tell me which has the lower Human T-cell Binding 0.2 uM (MFI) figure. // caller expects the label of the chosen entry
a
(a: 2790 MFI, b: 4380 MFI)

1: P283AR9P1362_C6 (designed binder, FN3 domain) LPAPKNLVVSRVTEDSARLSWYPSDPPFDSFLIQYQESEKVGEAIVLTVPGSERSYDLTGLKPGTEYTVSIYGVPNYHSRRSYYYSNPLSAIFTT
2: P282AR9P1356_D3 (designed binder, FN3 domain) LPAPKNLVVSRVTEDSARLSWTRHETSFDSFLIQYRESEKVGEAIVLTVPGSERSYDLTGLKPGTEYTVSIYGVVVEYDAAGNPKYSNPLSAIFTT
Kindly compare 1 with 2 and tell me which has the lower Human T-cell Binding 0.2 uM (MFI) figure. // caller expects the label of the chosen entry
2
(2: 2400 MFI, 1: 4150 MFI)
